Every entry's value here was drawn from patent US20240109917A1.

Target: Tb-labeled inactive PDGFRβ (Homo sapiens (Human))
Sequence (P09619 33-1106): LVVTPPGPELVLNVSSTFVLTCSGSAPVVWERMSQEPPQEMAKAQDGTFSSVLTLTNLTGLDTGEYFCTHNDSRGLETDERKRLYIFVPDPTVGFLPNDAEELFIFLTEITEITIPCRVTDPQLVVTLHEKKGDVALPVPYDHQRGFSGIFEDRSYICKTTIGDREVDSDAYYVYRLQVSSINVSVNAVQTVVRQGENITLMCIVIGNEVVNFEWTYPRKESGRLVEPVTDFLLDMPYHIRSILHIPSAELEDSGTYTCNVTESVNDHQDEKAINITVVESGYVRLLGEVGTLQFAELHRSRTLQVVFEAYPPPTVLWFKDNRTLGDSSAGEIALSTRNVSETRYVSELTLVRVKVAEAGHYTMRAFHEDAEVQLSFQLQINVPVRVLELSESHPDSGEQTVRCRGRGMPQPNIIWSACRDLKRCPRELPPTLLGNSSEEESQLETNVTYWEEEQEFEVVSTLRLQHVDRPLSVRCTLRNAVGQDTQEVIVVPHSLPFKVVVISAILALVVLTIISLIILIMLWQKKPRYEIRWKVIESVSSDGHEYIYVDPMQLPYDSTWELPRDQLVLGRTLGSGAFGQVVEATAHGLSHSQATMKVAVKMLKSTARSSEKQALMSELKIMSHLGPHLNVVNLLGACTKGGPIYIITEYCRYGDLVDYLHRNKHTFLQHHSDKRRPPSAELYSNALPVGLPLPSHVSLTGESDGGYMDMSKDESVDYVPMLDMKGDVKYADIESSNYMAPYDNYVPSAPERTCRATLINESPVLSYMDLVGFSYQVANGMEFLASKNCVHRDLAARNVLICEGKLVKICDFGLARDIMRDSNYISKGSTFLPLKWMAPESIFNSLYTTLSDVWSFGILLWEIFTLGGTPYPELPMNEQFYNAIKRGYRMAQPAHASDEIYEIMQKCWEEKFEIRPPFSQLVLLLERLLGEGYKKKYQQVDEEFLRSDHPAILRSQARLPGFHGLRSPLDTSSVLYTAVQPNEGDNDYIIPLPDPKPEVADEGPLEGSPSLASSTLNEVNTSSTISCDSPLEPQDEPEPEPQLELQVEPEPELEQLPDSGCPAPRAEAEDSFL
Experiment: PDGFRβ LanthaScreen Assay
Type: binding
Conditions: read-out: PDGFR Lantha IC50
pIC50: −log10 of the molar value.
Outcome: Y for pIC50 of at least 8; N for anything lower.

Sample answers from the record:
1. Cc1ncc(NC(=O)CN2CCOCC23CCC3)cc1NC(=O)c1cnn2cc(-c3cnn(C)c3)sc12	Y
2. COCCn1cc(-c2cn3ncc(C(=O)Nc4cc(NC(=O)CN5CC6CCC5CC6)cnc4C)c3s2)cn1	Y
3. Cc1cc(C(=O)NCCN2CCCC23CCC3)sc1NC(=O)c1cnn2cc(-c3cnn(C)c3)sc12	N
4. Cc1ncc(NC(=O)CN2CCS(=O)(=O)CC2)cc1NC(=O)c1cnn2cc(-c3cnn(C)c3)sc12	N
5. Cc1ncc(C(=O)NCCN2C3CCC2CC3)cc1NC(=O)c1cnn2cc(-c3cnn(C)c3C)sc12	Y
6. COc1ncccc1-c1cn2ncc(C(=O)Nc3cc(NC(=O)CN4CCC5(CCOC5)C4)cnc3C)c2s1 (stereo not drawn)	Y
7. Cc1ncc(C(=O)NCCN2CCC3(CCC3)C2)cc1NC(=O)c1cnn2cc(-c3cnn(C)c3)sc12	Y
8. Cc1ncc(NC(=O)OC[C@@H]2CCCN2C)cc1NC(=O)c1cnn2cc(-c3cc[nH]c3)sc12	Y

In: Form field: pIC50 at least 8? Entry: Cc1ncc(NC(=O)OCCN2CC3CCC2C3)cc1NC(=O)c1cnn2cc(-c3cnn(C)c3)sc12 (stereo not drawn)
Out: N

In: Form field: pIC50 at least 8? Entry: "Cc1ncc(NC(=O)C[C@H]2CCN(C(C)C)C2)cc1NC(=O)c1cnn2cc(-c3cnn(C)c3)sc12"
Out: N

In: Form field: pIC50 at least 8? Entry: "Cc1ncc(C(=O)NCCN2CC(C)(C)C2)cc1NC(=O)c1cnn2cc(-c3ccncc3)sc12"
Out: N

In: Form field: pIC50 at least 8? Entry: "Cc1ncc(C(=O)NCCN2CCC(F)(F)CC2)cc1NC(=O)c1cnn2cc(-c3ccncc3)sc12"
Out: Y

In: Form field: pIC50 at least 8? Entry: "Cc1ncc(C(=O)NCCN2Cc3ncsc3C2)cc1NC(=O)c1cnn2cc(-c3cnn(C)c3)sc12"
Out: N

In: Form field: pIC50 at least 8? Entry: "Cc1ncc(C(=O)NCCN2C[C@H]3CC[C@@H]2C3)cc1NC(=O)c1cnn2cc(-c3cn(C)nc3C)sc12"
Out: Y

In: Form field: pIC50 at least 8? Entry: "Cc1ncc(NC(=O)CN2CCCOCC2)cc1NC(=O)c1cnn2cc(-c3cnn(C)c3)sc12"
Out: N

In: Form field: pIC50 at least 8? Entry: "COCCn1cc(-c2cn3ncc(C(=O)Nc4cc(NC(=O)C[C@H]5CCN(C(C)C)C5)cnc4C)c3s2)cn1"
Out: N

In: Form field: pIC50 at least 8? Entry: "COc1ncccc1-c1cn2ncc(C(=O)Nc3cc(NC(=O)CN4CC(F)C4)cnc3C)c2s1"
Out: Y

In: Form field: pIC50 at least 8? Entry: "Cc1ncc(NC(=O)CN2CCC3(CC3)C2)cc1NC(=O)c1cnn2cc(-c3cnn(CCO)c3)sc12"
Out: Y

In: Form field: pIC50 at least 8? Entry: Cc1ncc(NC(=O)CN2CCC3(CCCO3)C2)cc1NC(=O)c1cnn2cc(-c3cnn(C)c3)sc12 (stereo not drawn)
Out: Y

In: Form field: pIC50 at least 8? Entry: "Cc1ncc(NC(=O)CN2CCCC2(C)C)cc1NC(=O)c1cnn2cc(-n3ncc4cccnc43)sc12"
Out: Y

In: Form field: pIC50 at least 8? Entry: "Cc1ncc(NC(=O)CN2CCCC2(C)C)cc1NC(=O)c1cnn2cc(-c3cnn(C(C)(C)CO)c3)sc12"
Out: Y
